Data provenance: patent US4879384A

- TEST_TARGET: calcium channels (Oryctolagus cuniculus)
- Construct: from tissue; host or cells: rabbit heart membranes (female New Zealand white rabbits; 42,000 xg pellet)
- PROTOCOL_DESCRIPTION: Inhibition of nitrendipine binding to calcium channels
- Format: New Zealand white rabbit (heart membranes)
- CONDITION_PARAMETERS: Table II, second part; read-out: Inhibition Nitrendipine binding IC^50
pIC50: −log10 of the molar value.

{"MOLECULE": "CC1=C(C(=O)OCCN(C)Cc2ccccc2)C(c2ccccc2[N+](=O)[O-])C2=C(CCCCCS2(=O)=O)N1 (stereo not shown)", "pIC50": 6.96}

----------
- TEST_TARGET: calcium channels (Oryctolagus cuniculus, UniProt P15381)
- Construct: from tissue; host or cells: rabbit heart membranes (female New Zealand white rabbits; 42,000 xg pellet)
- Sequence (P15381 whole entry, other chains not shown): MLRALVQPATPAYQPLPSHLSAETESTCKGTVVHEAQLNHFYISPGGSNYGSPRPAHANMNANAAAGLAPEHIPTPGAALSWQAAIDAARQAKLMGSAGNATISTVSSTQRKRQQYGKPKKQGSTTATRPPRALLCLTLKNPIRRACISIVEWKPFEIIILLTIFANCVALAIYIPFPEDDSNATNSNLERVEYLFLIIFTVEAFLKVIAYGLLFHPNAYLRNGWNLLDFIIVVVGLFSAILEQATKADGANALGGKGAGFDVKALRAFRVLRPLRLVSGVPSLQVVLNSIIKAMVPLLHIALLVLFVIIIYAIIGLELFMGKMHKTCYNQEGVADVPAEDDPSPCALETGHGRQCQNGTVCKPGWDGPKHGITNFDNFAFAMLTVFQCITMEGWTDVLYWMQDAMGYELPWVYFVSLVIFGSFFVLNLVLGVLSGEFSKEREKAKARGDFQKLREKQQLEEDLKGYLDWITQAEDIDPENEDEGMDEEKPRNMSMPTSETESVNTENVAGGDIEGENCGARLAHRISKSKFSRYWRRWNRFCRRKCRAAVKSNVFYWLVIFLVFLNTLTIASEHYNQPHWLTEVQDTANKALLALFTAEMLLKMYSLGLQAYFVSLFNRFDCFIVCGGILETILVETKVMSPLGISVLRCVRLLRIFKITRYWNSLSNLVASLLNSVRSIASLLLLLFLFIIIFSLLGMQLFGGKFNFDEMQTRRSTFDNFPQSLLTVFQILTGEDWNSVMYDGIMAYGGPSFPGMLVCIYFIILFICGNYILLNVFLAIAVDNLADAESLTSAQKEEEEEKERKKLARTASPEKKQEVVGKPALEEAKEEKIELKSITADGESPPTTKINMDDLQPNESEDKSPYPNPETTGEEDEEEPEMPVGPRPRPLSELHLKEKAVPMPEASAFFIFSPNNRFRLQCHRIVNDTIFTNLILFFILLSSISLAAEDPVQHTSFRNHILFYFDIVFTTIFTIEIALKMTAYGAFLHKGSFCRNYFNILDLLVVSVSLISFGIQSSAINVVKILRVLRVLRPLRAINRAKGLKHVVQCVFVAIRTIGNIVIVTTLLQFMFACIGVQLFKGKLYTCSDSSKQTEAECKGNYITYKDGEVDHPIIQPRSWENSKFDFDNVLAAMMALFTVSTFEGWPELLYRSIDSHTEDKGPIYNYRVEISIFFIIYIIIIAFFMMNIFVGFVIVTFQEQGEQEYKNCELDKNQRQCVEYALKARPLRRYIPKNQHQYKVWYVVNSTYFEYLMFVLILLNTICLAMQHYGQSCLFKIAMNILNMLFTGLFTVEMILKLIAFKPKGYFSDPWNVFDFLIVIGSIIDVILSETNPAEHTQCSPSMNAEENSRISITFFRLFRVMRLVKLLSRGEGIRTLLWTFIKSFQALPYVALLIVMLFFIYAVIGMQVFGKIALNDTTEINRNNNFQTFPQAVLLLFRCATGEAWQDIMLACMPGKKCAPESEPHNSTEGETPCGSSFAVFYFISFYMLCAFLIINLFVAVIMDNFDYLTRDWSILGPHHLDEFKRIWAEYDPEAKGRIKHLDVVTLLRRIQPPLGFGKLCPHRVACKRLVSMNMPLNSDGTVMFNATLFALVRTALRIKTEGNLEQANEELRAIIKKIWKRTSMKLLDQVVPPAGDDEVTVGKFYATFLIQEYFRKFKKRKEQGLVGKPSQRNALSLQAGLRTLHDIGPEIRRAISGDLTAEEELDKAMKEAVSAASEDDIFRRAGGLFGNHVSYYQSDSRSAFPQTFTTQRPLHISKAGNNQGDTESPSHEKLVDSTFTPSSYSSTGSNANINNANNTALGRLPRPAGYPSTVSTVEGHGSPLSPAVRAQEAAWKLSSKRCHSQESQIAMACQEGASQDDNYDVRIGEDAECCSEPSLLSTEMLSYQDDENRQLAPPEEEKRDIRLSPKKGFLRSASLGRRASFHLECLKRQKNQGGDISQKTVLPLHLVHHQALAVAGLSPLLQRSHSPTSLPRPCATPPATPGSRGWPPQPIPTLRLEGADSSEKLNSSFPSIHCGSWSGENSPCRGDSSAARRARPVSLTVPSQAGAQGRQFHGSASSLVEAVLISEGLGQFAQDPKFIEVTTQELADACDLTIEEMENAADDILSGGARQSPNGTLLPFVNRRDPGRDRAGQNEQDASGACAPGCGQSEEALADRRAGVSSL
- Sequence (P13806 27-960 partner limits assumed, other chains not shown): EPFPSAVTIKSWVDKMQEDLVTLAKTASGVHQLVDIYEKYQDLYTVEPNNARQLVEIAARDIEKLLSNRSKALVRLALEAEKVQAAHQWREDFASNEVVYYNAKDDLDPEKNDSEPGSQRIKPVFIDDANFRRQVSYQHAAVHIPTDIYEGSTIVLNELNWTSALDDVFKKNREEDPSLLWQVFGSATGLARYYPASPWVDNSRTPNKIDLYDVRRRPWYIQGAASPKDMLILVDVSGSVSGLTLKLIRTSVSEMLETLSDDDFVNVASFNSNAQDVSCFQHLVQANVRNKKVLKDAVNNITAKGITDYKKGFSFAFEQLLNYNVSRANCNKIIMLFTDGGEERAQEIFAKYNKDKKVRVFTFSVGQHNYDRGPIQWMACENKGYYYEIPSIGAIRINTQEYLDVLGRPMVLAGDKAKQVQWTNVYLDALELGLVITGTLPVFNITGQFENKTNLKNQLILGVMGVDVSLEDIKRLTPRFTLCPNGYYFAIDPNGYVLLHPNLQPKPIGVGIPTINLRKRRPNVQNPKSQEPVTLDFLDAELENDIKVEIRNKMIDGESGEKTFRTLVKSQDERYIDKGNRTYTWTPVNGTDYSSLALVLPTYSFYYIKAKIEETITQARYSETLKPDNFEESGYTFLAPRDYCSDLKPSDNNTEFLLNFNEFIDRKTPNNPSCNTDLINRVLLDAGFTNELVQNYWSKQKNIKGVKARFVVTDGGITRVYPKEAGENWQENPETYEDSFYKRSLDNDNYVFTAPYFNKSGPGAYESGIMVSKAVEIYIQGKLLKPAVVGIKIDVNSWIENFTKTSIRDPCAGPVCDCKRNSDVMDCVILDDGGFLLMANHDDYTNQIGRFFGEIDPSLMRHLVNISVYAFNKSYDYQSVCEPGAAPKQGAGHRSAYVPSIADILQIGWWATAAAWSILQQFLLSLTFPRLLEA
- Sequence (P13806 961-1106 partner limits assumed, other chains not shown): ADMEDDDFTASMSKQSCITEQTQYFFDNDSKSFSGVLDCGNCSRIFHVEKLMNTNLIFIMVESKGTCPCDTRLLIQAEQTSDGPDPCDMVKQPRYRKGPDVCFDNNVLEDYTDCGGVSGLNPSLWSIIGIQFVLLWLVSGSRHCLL
- PROTOCOL_DESCRIPTION: Inhibition of nitrendipine binding to calcium channels
- Assay type: New Zealand white rabbit (heart membranes)
- CONDITION_PARAMETERS: Table II, first part; read-out: Inhibition of Nitrendipine binding IC50

{"MOLECULE": "CCOC(=O)C1=C(C)NC2=C(C1c1cccnc1SC)S(=O)(=O)CCCCC2 (stereo not shown) [drawing 8 CH2 CH3]", "IC50 / nM": 108}
